Ka reference
Target: T1, thermostabilized turkey beta-1 adrenergic receptor (turkey)
T1 construct: turkey beta-1 adrenergic receptor, thermostabilized, truncated at the C terminus and intracellular loop 3; the states are told apart by the assay; also called β1AR; apo-β1AR
T1 sequence (chain, as listed by the source): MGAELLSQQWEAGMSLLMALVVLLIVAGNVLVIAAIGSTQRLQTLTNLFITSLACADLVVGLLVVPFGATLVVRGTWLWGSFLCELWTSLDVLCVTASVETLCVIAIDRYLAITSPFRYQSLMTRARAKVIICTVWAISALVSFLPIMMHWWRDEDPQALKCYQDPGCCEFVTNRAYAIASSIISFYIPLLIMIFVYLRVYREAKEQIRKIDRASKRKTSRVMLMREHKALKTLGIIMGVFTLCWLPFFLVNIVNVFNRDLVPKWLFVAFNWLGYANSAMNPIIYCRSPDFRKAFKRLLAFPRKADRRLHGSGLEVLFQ
Test: cross-linking + other: high-mass MALDI-MS; isoprenaline-bound β1AR (iso-β1AR), 5 µM, mixed with partner protein at various concentrations, 1 h at room temperature, BS(PEG)9 cross-linking, 0.6 µM β-Gal as internal standard; 20 mM Hepes pH 7.5, 40 mM NaCl, 0.01% LMNG; Ka = 1/Kd
Conditions: both partners purified
Return type: number; implicit unit M⁻¹.

[
  {
    "BINDER": "nanobody 80 (VHH, nanobody 80; also called Nb80; NB80; not shown: His6, C-terminal, kept) VHH: QVQLQESGGGLVQAGGSLRLSCAASGSIFSINTMGWYRQAPGKQRELVAAIHSGGSTNYANSVKGRFTISRDNAANTVYLQMNSLKPEDTAVYYCNVKDYGAVLYEYDYWGQGTQVTVSS",
    "READING": "4.76e+06"
  },
  {
    "BINDER": "mini-Go truncated by its last five residues (domain or fragment, mGo (Dm6) without its last five residues GCGLY; also called mGo_Δ5; source: E. coli, purified (same protocol as the mGα proteins); not shown: His tag, N-terminal, cleaved) GIEKNLKEDGISAAKDVKLLLLGADNSGKSTIVKQMKIIHGGSGGSGGTTGIVETHFTFKNLHFRLFDVGGQRSERKKWIHCFEDVTAIIFCVDLSDYNRMHESLMDFDSICNNKFFIDTSIILFLNKKDLFGEKIKKSPLTICFPEYTGPNTYEDAAAYIQAQFESKNRSPNKEIYCHMTCATDTNNAQVIFDAVTDIIIANNLR",
    "READING": "4.17e+06"
  },
  {
    "BINDER": "mini-Go (domain or fragment, thermostabilized truncated form of the Gαo subunit with the GTPase domain, lacking the α-helical domain; also called mGo; source: E. coli, purified (Ni Sepharose, TEV cleavage, reverse Ni-NTA, gel filtration); not shown: His tag, N-terminal, cleaved) GIEKNLKEDGISAAKDVKLLLLGADNSGKSTIVKQMKIIHGGSGGSGGTTGIVETHFTFKNLHFRLFDVGGQRSERKKWIHCFEDVTAIIFCVDLSDYNRMHESLMDFDSICNNKFFIDTSIILFLNKKDLFGEKIKKSPLTICFPEYTGPNTYEDAAAYIQAQFESKNRSPNKEIYCHMTCATDTNNAQVIFDAVTDIIIANNLRGCGLY",
    "READING": "4e+06"
  },
  {
    "BINDER": "mini-Gi (domain or fragment, engineered from mGs (Dm5) by seven mutations on the α5-helix that correspond to residues of Gi; only residues of the α5-helix are those of Gi; also called mGi; source: E. coli, purified (Ni Sepharose, TEV cleavage, reverse Ni-NTA, gel filtration); not shown: His tag, N-terminal, cleaved) GIEKQLQKDKQVYRATHRLLLLGADNSGKSTIVKQMRILHGGSGGSGGTSGIFETKFQVDKVNFHMFDVGGQRDERRKWIQCFNDVTAIIFVVDSSDYNRLQEALNDFKSIWNNRWLRTISVILFLNKQDLLAEKVLAGKSKIEDYFPEFARYTTPEDATPEPGEDPRVTRAKYFIRDEFLRISTASGDGRHYCYPHFTCAVDTENARRIFNDVTDIIIKMNLRDCGLF",
    "READING": 620000
  },
  {
    "BINDER": "mini-Gq (domain or fragment, engineered from mGs (Dm5) by nine mutations on the α5-helix that correspond to residues of Gq; only residues of the α5-helix are those of Gq; also called mGq; source: E. coli, purified (Ni Sepharose, TEV cleavage, reverse Ni-NTA, gel filtration); not shown: His tag, N-terminal, cleaved) GIEKQLQKDKQVYRATHRLLLLGADNSGKSTIVKQMRILHGGSGGSGGTSGIFETKFQVDKVNFHMFDVGGQRDERRKWIQCFNDVTAIIFVVDSSDYNRLQEALNDFKSIWNNRWLRTISVILFLNKQDLLAEKVLAGKSKIEDYFPEFARYTTPEDATPEPGEDPRVTRAKYFIRDEFLRISTASGDGRHYCYPHFTCAVDTENARRIFNDCKDIILQMNLREYNLV",
    "READING": 810000
  }
]

// recorded Ka for mini-Gs (domain or fragment, thermostabilized truncated Gαs with the GTPase domain, lacking the α-helical domain; also called mGs; source: E. coli, purified (Ni Sepharose, TEV cleavage, reverse Ni-NTA, gel filtration); not shown: His tag, N-terminal, cleaved) GIEKQLQKDKQVYRATHRLLLLGADNSGKSTIVKQMRILHGGSGGSGGTSGIFETKFQVDKVNFHMFDVGGQRDERRKWIQCFNDVTAIIFVVDSSDYNRLQEALNDFKSIWNNRWLRTISVILFLNKQDLLAEKVLAGKSKIEDYFPEFARYTTPEDATPEPGEDPRVTRAKYFIRDEFLRISTASGDGRHYCYPHFTCAVDTENARRIFNDCRDIIQRMHLRQYELL : 2.86e+06

src = paper PMC8346855
